# Target Entity: Claudin18.2-His protein (human)
# Experimental Details: indirect ELISA on coated Claudin18.2-His

[
  {
    "Binder": "420F12G8 (antibody, V domains shown) VH: DVQLVESGGGLVQPGGSRKLSCAASGFAFSGFGMHWIRQTPEKGLEWVAYISSGSRPIYYADTVKGRFTISRDNPKNTLFLQMTSLRSEDTAMYFCVRFYYGNSFDHWGQGTLVTVSA VL: DIVMTQSPSFLTVTAGEKVTMTCRSSQNLLNSGNQKNYLTWYQQKPGQPPKLLISWASTRESGVPDRFTGSGSGTDFTLTISSVQPEDLALYYCQNAYSFPFTFGAGTKLELK",
    "EC50 / µg/mL": 0.0176
  },
  {
    "Binder": "217D9G2 (antibody, V domains shown) VH: QAYLQQSGAELVRSGASVKMSCKASGFTFTSYNIHWVKQTPGQGLEWIGYISPGNGGSNYNLNFKDKATLTAATSSTTAYMQISSLTSEDSAVYFCATGRGFAYWGQGTLVTVSA VL: DIVMTQSPSSLTVTPGEKVTMSCRSSQSLFNSGNQKNYLIWYQQKPGQPPKLLIYRASTRDSGVPDRFTGSGSGTDFTLTISNVQAEDLAVYYCQNDYSYPLTFGAGTKLELK",
    "EC50 / µg/mL": 0.028
  },
  {
    "Binder": "406E1H7 (antibody, V domains shown) VH: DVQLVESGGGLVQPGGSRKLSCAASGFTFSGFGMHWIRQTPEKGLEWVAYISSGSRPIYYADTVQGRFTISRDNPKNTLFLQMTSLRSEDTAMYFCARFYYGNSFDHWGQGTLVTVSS VL: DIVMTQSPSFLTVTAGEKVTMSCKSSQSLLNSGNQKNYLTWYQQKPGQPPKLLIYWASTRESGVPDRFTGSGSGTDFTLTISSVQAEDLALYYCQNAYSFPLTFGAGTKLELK",
    "EC50 / µg/mL": 0.00955
  },
  {
    "Binder": "414A5F7 (antibody, V domains shown) VH: DVQLVESGGGLVQPGGSRKLSCAASGFTFSSFGMHWVRQAPEKGLEWVAYISSGSSPIYYADTVKGRFTISRDNPKNTLFLQMTSLRSEDTAMYFCARIYYGNSFAYWGQGTLVTVSA VL: DIVMTQSPSSLTVTAGEKVAMSCKSSQTLLNSGNQKNYLTWYQQKPGQPPKLLLYWASTRESGVPDRFTGSGSGTDFTLTISSVQAEDLAVYYCQNAYYYPLTFGSGTKLELK",
    "EC50 / µg/mL": 0.00805
  },
  {
    "Binder": "407E11H8 (antibody, V domains shown) VH: DVQLVESGGGLVQPGGSRKLSCAASGFTFSDFGMHWIRQTPEKGLEWVAYISSGSRPIYYADTVKGRFTISRDNPKNTLFLQMTSLRSEDTAMYFCVRFYFGNSFDHWGQGTLVTVSA VL: DIVMTQSPSFLTVTAGEKVTMTCRSSQNLLNSGNLKNYLTWYQQKPGQPPKLLISWASTRESGVPDRFTGSGSGTDFTLTISSVQPEDLALYYCQNAYSFPLTFGAGTKLELK",
    "EC50 / µg/mL": 0.017
  },
  {
    "Binder": "414H6G2 (antibody, V domains shown) VH: DVQLVESGGGLVQPGGSRKLSCAASGFTFSGFGMHWIRQTAEKGLEWVAYISSGSRPIYYADTVQGRFTISRDNPKNTLFLQMTSLRSEDTAMYFCARFYYGNSFDHWGQGTLVTVSA VL: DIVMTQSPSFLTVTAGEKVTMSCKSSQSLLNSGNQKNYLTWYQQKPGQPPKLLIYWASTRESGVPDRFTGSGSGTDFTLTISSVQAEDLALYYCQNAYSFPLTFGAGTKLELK",
    "EC50 / µg/mL": 0.0116
  },
  {
    "Binder": "262H9H6 (antibody, V domains shown) VH: QAYLQQSGAELVRSGASVKMSCKASGYTFTSHNMHWVKQTPGQGLEWIGYISPGNGYTNYNQKFRGKATLTADTSSSTAYMQISSLTSEDSAVYFCTRDYYGNSFTYWGQGTLVTVSA VL: DIVMTQSPSSLTEKAGERVSMSCKSSQSLFNSGNQKNYLTWYQQKPGQPPKLLIYWASTRESGVPDRFTGSGSGTEFTLTISSVQAEDLAVYYCQNNYWFPFTFGAGTKLELK",
    "EC50 / µg/mL": 0.014
  },
  {
    "Binder": "207F8G5 (antibody, V domains shown) VH: QAYLQQSGAELVRSGASVKMSCKASGFTFTSYNIHWVKQTPGQGLEWIGYISPGNGGSNYNLKFKDKATLTSATSSSTAYMQISSLTSEDSAVYFCATGRGFAYWGQGTLVTVSA VL: DIVMTQSPSSLTVTPGEKVTMSCKSSQSLFNSGNQKNYLIWYQQKPGQPPKLLIYRASTRDSGVPDRFTGSGSGTDFTLTISNVQAEDLAIYYCQNDYSYPLTFGAGTKLELK",
    "EC50 / µg/mL": 0.0335
  },
  {
    "Binder": "426H6E11 (antibody, V domains shown) VH: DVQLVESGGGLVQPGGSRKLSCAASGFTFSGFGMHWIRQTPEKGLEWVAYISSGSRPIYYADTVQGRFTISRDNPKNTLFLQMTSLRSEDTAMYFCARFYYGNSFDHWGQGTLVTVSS VL: DIVMTQFPSFLTVTAGEKVTMSCKSSQTLLNSGNQKNYLTWYQQKPGQPPKLLIYWASTRESGVPDRFTGSGSGTDFTLTISSVQAEDLALYYCQNAYSFPLTFGAGTNLELK",
    "EC50 / µg/mL": 0.0224
  },
  {
    "Binder": "277F1F8 (antibody, V domains shown) VH: QAYLQQSGPELVRSGASVKMSCKASGYTFTSHNMHWVKQTPGQGLEWIGYINPGNGGNNYNQKFKGKATLTADTSSSTAYMQISSLTSEDSAVYFCARDYYGNSFAFWGQGTLVTVSA VL: DIVMTQSPSSLTETAGEKVSMSCKSSQSLLNSGNQKNYLTWYQQKPGQPPKLLIYWASTRESGVPDRFTGSGSGTDFTLTISSVQAEDLAVYYCQNDYRFPFTFGAGTKLELK",
    "EC50 / µg/mL": 0.0158
  }
]
